Data credit: the supplement of paper PMC4466140

Below, each entry is listed with its recorded SPOT peptide array binding signal intensity.
molecular target: ScBbc1; experiment: SPOT peptide array binding signal intensity (averaged, normalized) (arbitrary units (background-subtracted, floor 0; scale differs between SH3 domains)); higher = stronger binding of the SH3 domain to the peptide

VPPPMQPPPIESSNL | ≤ 0
NVLRKILEIPLHSFS | ≤ 0
ALKQKKIPPPFKPHL | ≤ 0

Please look at the following binder next.
Annotate the binder PALPSLPPPPLLNVD with its measured SPOT peptide array binding signal intensity.
≤ 0
